Target: seven of the nine datasets (monoUb and the diUb types fitted to a one-site binding model)
Experiment: SPR; monoUb and all types of diUb immobilized, NZF1 (or its mutants) binding detected; one-site or two-site binding model; two experiments
pKd: −log10 of the molar value.
measure: pKd

{"columns": ["substance", "experimental.result"],
 "data": [
  ["TRABID NZF1 (aa 1-33) (from UniProt Q9UGI0 1-33) (domain or fragment)", "3.43 to 3.72"]
]}

The reported numbers originate from paper PMC4386031.
